# ASSAY TARGET: rA3G-CD1 (loop-8 mutant) (Macaca mulatta (rhesus macaque), UniProt M1GSK9 1-138+=AEAG+147-196, internal_change)
# Sequence (M1GSK9 entry or part of it | mutant): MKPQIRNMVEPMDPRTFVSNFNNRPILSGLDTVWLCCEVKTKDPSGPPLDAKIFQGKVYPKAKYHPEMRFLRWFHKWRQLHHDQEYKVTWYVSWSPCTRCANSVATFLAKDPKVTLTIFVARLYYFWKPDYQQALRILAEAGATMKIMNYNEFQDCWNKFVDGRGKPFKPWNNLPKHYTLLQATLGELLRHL
# EXPERIMENT SUMMARY: ITC; n=0.83; ITC: 100 mM NaCl, 50 mM HEPES pH 7.5, 25 C; EMSA: 60 mM HEPES pH 7.5, 100 mM NaCl, on ice 10 min, native PAGE
# CONDITION NOTES: protein: recombinant; tags: GST tag removed with PreScission (pGEX-6P-1); chain copies: 2
OBSERVED PROPERTY: Kd (µM)

binder="UAUUCAUUAU (ssRNA) [10 nt RNA]" observed_value=1.49
